test: self-splicing fitness, log relative to wild type (ln ratio); higher = more splicing; Tetrahymena group I intron in knt gene, E. coli kanamycin selection, DiMSum; sequences stand for … in CUCUCU…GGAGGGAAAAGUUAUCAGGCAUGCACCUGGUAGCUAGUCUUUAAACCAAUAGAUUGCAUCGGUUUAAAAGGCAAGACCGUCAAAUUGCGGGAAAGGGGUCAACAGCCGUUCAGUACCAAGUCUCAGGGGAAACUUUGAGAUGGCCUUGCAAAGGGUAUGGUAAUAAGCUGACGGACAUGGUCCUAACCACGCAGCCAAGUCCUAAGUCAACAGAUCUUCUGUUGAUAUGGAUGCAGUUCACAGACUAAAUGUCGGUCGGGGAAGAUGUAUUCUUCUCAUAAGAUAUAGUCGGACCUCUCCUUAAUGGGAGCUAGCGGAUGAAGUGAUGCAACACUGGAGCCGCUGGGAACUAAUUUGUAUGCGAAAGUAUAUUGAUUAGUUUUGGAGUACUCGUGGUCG; conditions: 30 °C;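 also: selection with 25 µg/mL kanamycin versus none on LB agar overnight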
Everything with self-splicing fitness (ln) lower than -2 is F; everything else, including exactly -2, is T.

input: # bool: self-splicing fitness (ln) of "UAGGAGCAAUAUUACGCGUA" >= -2
output: T

input: # bool: self-splicing fitness (ln) of "UACAAGCAAUAUUACGUAGC" >= -2
output: F

input: # bool: self-splicing fitness (ln) of "GGGCAGCAAUAUUACGUUAG" >= -2
output: T

input: # bool: self-splicing fitness (ln) of "UUGUAGCAAUAUUACGAGUA" >= -2
output: F

input: # bool: self-splicing fitness (ln) of "UCUUAGCAAUAUUACGAGUU" >= -2
output: F

input: # bool: self-splicing fitness (ln) of "CUUAAGCAAUAUUACGCCUC" >= -2
output: T

input: # bool: self-splicing fitness (ln) of "CAAUAGCAAUAUUACGAGAG" >= -2
output: F

input: # bool: self-splicing fitness (ln) of "GUAAAGCAAUAUUACGCGCU" >= -2
output: T

input: # bool: self-splicing fitness (ln) of "AGGCAGCAAUAUUACGUGGC" >= -2
output: F

input: # bool: self-splicing fitness (ln) of "CCCAAGCAAUAUUACGAGGC" >= -2
output: F

input: # bool: self-splicing fitness (ln) of "CAGAAGCAAUAUUACGAUUA" >= -2
output: F

input: # bool: self-splicing fitness (ln) of "UUAGAGCAAUAUUACGAAAC" >= -2
output: F

input: # bool: self-splicing fitness (ln) of "AGCAAGCAAUAUUACGCAAA" >= -2
output: F

input: # bool: self-splicing fitness (ln) of "GGUAAGCAAUAUUACGAACA" >= -2
output: T

input: # bool: self-splicing fitness (ln) of "UCAUAGCAAUAUUACGAUCA" >= -2
output: T

input: # bool: self-splicing fitness (ln) of "CGAGAGCAAUAUUACGCAAU" >= -2
output: F

The values you see were collected from the supplement of paper PMC7877785.
